- system_tested: T1, recombinant N-terminal extracellular domain of the human PTH1R receptor (human, UniProt Q03431 27-188, limits assumed)
- T1 construct: domain: N-terminal extracellular domain; Bought reagent; also called N-ECD PTH1R; PTH1R N-terminal ECD
- T1 sequence (looked up): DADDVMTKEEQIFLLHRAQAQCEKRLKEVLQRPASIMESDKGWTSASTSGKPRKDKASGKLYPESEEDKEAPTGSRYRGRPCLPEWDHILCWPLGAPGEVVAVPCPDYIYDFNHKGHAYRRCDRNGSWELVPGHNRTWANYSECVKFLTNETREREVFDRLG
- test_summary: SPR, IgG captured, ECD injected
readout: kon (M⁻¹ s⁻¹)
The response must be a number in M⁻¹ s⁻¹ with no trailing unit.

A selection of reference data follows.
binder: XPA.85.326 (antibody, V domains shown, Light-chain-shuffled variant of XPA.85.012) VH: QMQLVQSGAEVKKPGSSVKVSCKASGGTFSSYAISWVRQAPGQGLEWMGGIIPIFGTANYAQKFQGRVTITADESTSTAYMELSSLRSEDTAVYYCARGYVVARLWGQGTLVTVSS VL: DIVMTQTPLSLSVTPGQPASISCKSSQSLLHIDGLTYLYWYLQKPGQPPQLLIYEVSHRFSGVSDKFSGSGSGTDFTLTISRVEAEDVGVYYCMQSLHLPITFGQGTRLEIK
kon (M⁻¹ s⁻¹): 380000
--
binder: XPA.85.332 (antibody, V domains shown, Light-chain-shuffled variant of XPA.85.012) VH: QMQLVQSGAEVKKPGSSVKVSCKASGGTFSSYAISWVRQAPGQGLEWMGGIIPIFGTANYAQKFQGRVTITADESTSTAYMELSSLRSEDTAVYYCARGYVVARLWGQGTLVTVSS VL: ETTLTQSPAFMSASVGDRVTITCQASQDINNFLNWYQQKPGKAPKFLIYDASNLEKGVPSKFSGRGSGTEFTLTISSLQPEDIATYYCQQYRDFPLTFGQGTRLEIK
kon (M⁻¹ s⁻¹): 2.4e+06
--
binder: XPA.85.330 (antibody, V domains shown, IgG; also called Ab330) VH: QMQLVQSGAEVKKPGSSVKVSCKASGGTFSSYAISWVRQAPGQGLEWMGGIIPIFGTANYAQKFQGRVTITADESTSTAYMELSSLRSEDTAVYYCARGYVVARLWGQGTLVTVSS VL: DIVMTQTPLSLSVTPGQPASISCKSSQSLLHIDGNTYLYWYLQRPGQPPQLLIYEISNRFSGVPDRFSGSGSGTDFTLKISRVEAEDVGVYYCMQSLHFPITFGQGTRLEIK
kon (M⁻¹ s⁻¹): 470000
--
binder: XPA.85.338 (antibody, V domains shown, Light-chain-shuffled variant of XPA.85.017) VH: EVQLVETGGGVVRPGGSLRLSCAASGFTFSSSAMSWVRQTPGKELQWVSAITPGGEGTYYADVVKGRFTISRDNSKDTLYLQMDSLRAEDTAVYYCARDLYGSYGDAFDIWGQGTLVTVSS VL: SYELTQPPSVSVAPGQTATITCSGDKLGDKYASWYQQKPGQSPVLVMFENRDRPSGIPDRFSGSNSGNTATLTISGTQAMDEADYYCQAWDSSTAWVFGGGTQLTVL
kon (M⁻¹ s⁻¹): 1.3e+06

What does the data say about its kon? Entry: XPA.85.339 (antibody, V domains shown, Light-chain-shuffled variant of XPA.85.017) VH: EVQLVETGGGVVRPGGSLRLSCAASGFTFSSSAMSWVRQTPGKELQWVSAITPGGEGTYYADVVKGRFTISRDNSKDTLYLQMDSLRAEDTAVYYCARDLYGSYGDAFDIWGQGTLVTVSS VL: SYELTQPPSVSVAPGQTATITCSGDRLGDKFISWYQQKPGQSPLLVIFEDNERPSRIPERFSGSNSGNSATLTISGTQAVDEADYYCQAWDSSWVFGGGTQLTVL
2.9e+06

Reference source for all entries: patent US20200317817A1
